target: hTLR9 (Homo sapiens, UniProt Q9NR96); test: HEK293-Blue-hTLR-9 cells assay (SEAP reporter, ODN2006 stimulation); assay type: cell-based; set-up: host or cells: HEK293 (HEK-Blue hTLR9); conditions: HEK293-Blue-hTLR9 cells, ODN2006, 20 hrs; read-out: HEK/hTLR9 IC50
Sequence (Q9NR96 26-1032): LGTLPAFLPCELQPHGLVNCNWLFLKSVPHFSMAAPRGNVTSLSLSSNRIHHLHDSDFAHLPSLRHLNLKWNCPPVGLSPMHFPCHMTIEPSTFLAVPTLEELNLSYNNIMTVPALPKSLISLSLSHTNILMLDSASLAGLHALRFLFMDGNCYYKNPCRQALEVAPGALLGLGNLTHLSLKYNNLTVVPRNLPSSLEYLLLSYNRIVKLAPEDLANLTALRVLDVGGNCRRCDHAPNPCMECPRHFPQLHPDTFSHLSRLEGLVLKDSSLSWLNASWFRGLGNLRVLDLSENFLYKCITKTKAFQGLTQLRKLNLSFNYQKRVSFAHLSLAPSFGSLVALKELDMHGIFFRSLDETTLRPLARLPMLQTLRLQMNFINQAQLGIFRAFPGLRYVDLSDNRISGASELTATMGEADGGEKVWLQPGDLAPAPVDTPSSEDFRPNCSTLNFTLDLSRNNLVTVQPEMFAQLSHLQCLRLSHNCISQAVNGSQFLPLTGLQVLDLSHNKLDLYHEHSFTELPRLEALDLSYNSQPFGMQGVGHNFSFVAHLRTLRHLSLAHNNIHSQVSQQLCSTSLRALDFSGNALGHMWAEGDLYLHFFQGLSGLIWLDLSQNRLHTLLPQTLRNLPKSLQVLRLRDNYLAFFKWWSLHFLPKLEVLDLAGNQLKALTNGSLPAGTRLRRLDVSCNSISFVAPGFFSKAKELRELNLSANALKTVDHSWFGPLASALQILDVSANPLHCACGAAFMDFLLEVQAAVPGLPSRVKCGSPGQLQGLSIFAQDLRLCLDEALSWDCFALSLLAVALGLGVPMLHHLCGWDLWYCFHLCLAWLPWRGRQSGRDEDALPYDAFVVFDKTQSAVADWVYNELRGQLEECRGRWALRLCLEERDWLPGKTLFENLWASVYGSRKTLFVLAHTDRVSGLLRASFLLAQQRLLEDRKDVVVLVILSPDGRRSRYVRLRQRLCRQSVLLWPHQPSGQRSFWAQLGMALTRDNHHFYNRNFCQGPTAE
Recorded IC50 for the following molecules
The reply should read as a number followed by its unit.

Illustrative cases are given below, each with its answer.
| Molecule | Observed measurement |
| --- | --- |
| C[C@@H]1CN(c2ccc(C#N)n3ncc(F)c23)C[C@H](CN2CC(c3ccc(N4CC(C)(N)C4)nc3)C2)O1 | 41 nM |
| C[C@@H]1CN(c2ccc(C#N)n3ncc(F)c23)C[C@H](CN2CCN(c3ccc(N4CCOC5(CNC5)C4)nc3)CC2)O1 | 116 nM |
| C[C@@H]1CN(c2ccc(C#N)c3ncccc23)C[C@H](CN2CCN(c3ncc(N4CCNCC4)cn3)CC2)O1 | 186 nM |

Enquiry: Look up IC50 of C[C@@H]1CN(c2ccc(C#N)c3ncccc23)C[C@H](CN2CCN(c3ccnc(N[C@H]4CNC[C@H]4F)n3)CC2)O1 and report it.
Return: 32 nM

Enquiry: Look up IC50 of C[C@@H]1CN(c2ccc(C#N)c3ncccc23)C[C@H](CN2CCN(c3ccnc(N4C[C@@H](F)[C@@H](N)C4)n3)CC2)O1 and report it.
Return: 31 nM

Enquiry: Look up IC50 of C[C@@H]1CN(c2ccc(C#N)c3ncccc23)C[C@H](CN2CCN(c3cccc(N4CCNCC(O)C4)n3)CC2)O1 (some centres unmarked) and report it.
Return: 150 nM

Enquiry: Look up IC50 of C[C@@H]1CN(c2ccc(C#N)n3ncc(F)c23)C[C@H](CN2CCN(c3ccc(N4CC(C)(N)C4)nc3)CC2)O1 and report it.
Return: 112 nM

Enquiry: Look up IC50 of Cc1cc(N2CCN(C[C@H]3CN(c4ccc(C#N)c5ncccc45)C[C@@H](C)O3)CC2)nc(N2CC[C@@H](N)[C@@H](F)C2)n1 and report it.
Return: 65 nM

Enquiry: Look up IC50 of C[C@@H]1CN(c2ccc(C#N)n3ncc(F)c23)C[C@H](CN2CC(c3ccc(N4CC(C)(N)C4)cc3)C2)O1 and report it.
Return: 163 nM

Enquiry: Look up IC50 of [2H]c1ccc2c(N3C[C@H](CN4CCN(c5ccc(N6CC7(CN(C)C7)C6)nc5)CC4)O[C@H](C)C3)ccc(C#N)c2n1 and report it.
Return: 59 nM

Enquiry: Look up IC50 of C[C@@H]1CN(c2ccc(C#N)c3ncccc23)C[C@H](CN2CCN(c3ccnc(N4C[C@H](N)[C@@H](F)C4)n3)CC2)O1 and report it.
Return: 68 nM

###

Biological target: hERG channel (Homo sapiens)
Construct: expressed in transfected cells; host or cells: CHO (Chinese hamster ovary)
Sequence (Q12809 whole entry): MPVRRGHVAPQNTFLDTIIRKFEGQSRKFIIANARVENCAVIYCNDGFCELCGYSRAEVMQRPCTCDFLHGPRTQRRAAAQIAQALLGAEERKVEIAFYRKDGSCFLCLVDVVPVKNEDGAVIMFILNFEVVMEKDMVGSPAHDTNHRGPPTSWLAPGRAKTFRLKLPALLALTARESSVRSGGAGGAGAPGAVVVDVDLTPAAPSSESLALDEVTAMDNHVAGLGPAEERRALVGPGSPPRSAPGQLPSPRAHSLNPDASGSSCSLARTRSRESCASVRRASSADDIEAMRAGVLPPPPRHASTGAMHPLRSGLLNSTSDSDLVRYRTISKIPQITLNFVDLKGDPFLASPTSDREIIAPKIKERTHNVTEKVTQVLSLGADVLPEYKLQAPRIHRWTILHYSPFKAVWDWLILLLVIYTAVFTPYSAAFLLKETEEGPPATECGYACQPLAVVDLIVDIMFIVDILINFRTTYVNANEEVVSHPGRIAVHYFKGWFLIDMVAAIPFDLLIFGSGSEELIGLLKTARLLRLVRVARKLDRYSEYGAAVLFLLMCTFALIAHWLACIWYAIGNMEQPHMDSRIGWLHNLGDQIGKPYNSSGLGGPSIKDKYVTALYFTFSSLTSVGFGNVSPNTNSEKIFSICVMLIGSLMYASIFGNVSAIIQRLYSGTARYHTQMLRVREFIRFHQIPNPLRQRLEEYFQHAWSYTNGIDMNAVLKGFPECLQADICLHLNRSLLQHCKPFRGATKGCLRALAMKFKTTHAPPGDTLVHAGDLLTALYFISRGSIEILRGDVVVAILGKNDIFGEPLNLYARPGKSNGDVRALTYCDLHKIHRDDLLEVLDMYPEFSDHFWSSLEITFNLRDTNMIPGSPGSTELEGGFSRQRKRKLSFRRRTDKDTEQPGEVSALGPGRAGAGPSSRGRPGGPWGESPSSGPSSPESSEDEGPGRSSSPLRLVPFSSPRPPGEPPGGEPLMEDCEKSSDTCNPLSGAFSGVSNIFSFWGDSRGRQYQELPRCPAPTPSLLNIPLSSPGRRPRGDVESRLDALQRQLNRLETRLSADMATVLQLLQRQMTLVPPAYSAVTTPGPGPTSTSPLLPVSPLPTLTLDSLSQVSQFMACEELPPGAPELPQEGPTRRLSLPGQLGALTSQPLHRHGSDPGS
Test: hERG channel inhibition assay (patch-clamp, CHOhERG cells)
Format: cell-based
Settings: human, CHO cells stably expressing hERG (CHOhERG); patch-clamp, CHOhERG cells
Procedure: hERG Channel Inhibition Assay: The hERG K^+ channels were cloned in humans and stably expressed in a CHO (Chinese hamster ovary) cell line. CHOhERG cells were used for patch-clamp (voltage-clamp, whole-cell) experiments. […] After the cells were stabilized for a few minutes, the amplitude and kinetics of IKhERG were recorded at a stimulation frequency of 0.1 Hz, (6 bpm). […]
Reported metric: IC20

Illustrative cases are given below, each with its answer.
| Input smiles | IC20 |
| --- | --- |
| [2H]c1nc2c(C#N)ccc(N3C[C@H](CN4CCN(c5nc(C)cc(N6CC(N)C6)n5)CC4)O[C@H](C)C3)c2nc1[2H] | > 10 µM |
| CO[C@@H]1CN(c2nccc(N3CCN(C[C@H]4CN(c5ccc(C#N)c6nccnc56)C[C@@H](C)O4)CC3)n2)C[C@H]1N | > 10 µM |

# context switch: different compound, same IC20
Enquiry: Look up IC20 of Cc1cc(N2CCNCC2)nc(N2CCN(C[C@H]3CN(c4ccc(C#N)c5nccnc45)C[C@@H](C)O3)CC2)n1 and report it.
Return: > 10 µM
